For each record, write down the corresponding CLint scaled at 1 μM.
- Experiment description: In vitro human hepatocyte stability
- Format: in vitro ADME
- Test conditions: cryopreserved human hepatocytes (pooled donor), human hepatocytes 0.5×10^6 cells/mL, read-out: Scaled-up unbound CLint
The answer should read as a number with its unit following.

Q) May I ask what CLint scaled at 1 μM has been recorded for O=C(Nc1cncnc1)C1CC12CCN(C(=O)OC(C(F)(F)F)C(F)(F)F)CC2 (single isomer, unassigned) [Example 96] ?
A) 17.1 mL/min/kg

I have 5 compounds here; please give me CLint scaled at 1 μM for each one.
1. O=C(Nc1cccnc1)[C@H]1CC12CCN(C(=O)OC(C(F)(F)F)C(F)(F)F)CC2 (single isomer, unassigned) [Example 2]
2. O=C(NCc1ccccc1)[C@H]1CC12CCN(C(=O)OC(C(F)(F)F)C(F)(F)F)CC2 (single isomer, unassigned) [Example 150]
3. Cc1cnc(NC(=O)C2CC23CCN(C(=O)OC(C(F)(F)F)C(F)(F)F)CC3)cn1 (single isomer, unassigned) [Example 112]
4. O=C(Nc1cncc(F)c1)C1CC12CCN(C(=O)OC(C(F)(F)F)C(F)(F)F)CC2 (single isomer, unassigned) [Example 40]
5. O=C(Nc1ccc(-n2cccn2)nc1)C1CC12CCN(C(=O)OC(C(F)(F)F)C(F)(F)F)CC2 (single isomer, unassigned) [Example 29]

A)
["34.8 mL/min/kg", "88.8 mL/min/kg", "9.59 mL/min/kg", "43.2 mL/min/kg", "32.7 mL/min/kg"]

Hi team, please reply with CLint scaled at 1 μM for each item in this list.
1. Cn1ccc(NC(=O)C2CC23CCN(C(=O)OC(C(F)(F)F)C(F)(F)F)CC3)n1 (single isomer, unassigned) [Example 127]
2. O=C(Nc1cncs1)C1CC12CCN(C(=O)OC(C(F)(F)F)C(F)(F)F)CC2 (single isomer, unassigned) [Example 129]
3. O=C(NC1CCOCC1)[C@H]1CC12CCN(C(=O)OC(C(F)(F)F)C(F)(F)F)CC2 [Example 8]
4. O=C(Nc1ccncc1)C1CC12CCN(C(=O)OC(C(F)(F)F)C(F)(F)F)CC2 (single isomer, unassigned) [Example 24]
5. O=C(Nc1cccnn1)[C@H]1CC12CCN(C(=O)OC(C(F)(F)F)C(F)(F)F)CC2 [Example 6]
6. CC1(NC(=O)C2CC23CCN(C(=O)OC(C(F)(F)F)C(F)(F)F)CC3)CCOCC1 (single isomer, unassigned) [Example 132]
7. Cn1nccc1NC(=O)C1CC12CCN(C(=O)OC(C(F)(F)F)C(F)(F)F)CC2 (single isomer, unassigned) [Example 135]
8. CP(C)(=O)c1ccc(NC(=O)C2CC23CCN(C(=O)OC(C(F)(F)F)C(F)(F)F)CC3)cn1 (single isomer, unassigned) [Example 20]

A)
1: 9.51 mL/min/kg; 2: 53.6 mL/min/kg; 3: 7.75 mL/min/kg; 4: 11.9 mL/min/kg; 5: 5.79 mL/min/kg; 6: 44.2 mL/min/kg; 7: 16.8 mL/min/kg; 8: 0.85 mL/min/kg

For each of the items listed, what is its CLint scaled at 1 μM?
1. O=C(Nc1nccs1)C1CC12CCN(C(=O)OC(C(F)(F)F)C(F)(F)F)CC2 (single isomer, unassigned) [Example 138]
2. CS(=O)(=O)Nc1ccc(NC(=O)C2CC23CCN(C(=O)OC(C(F)(F)F)C(F)(F)F)CC3)cn1 (single isomer, unassigned) [Example 181]
3. O=C(NCC1CCOCC1)[C@H]1CC12CCN(C(=O)OC(C(F)(F)F)C(F)(F)F)CC2 (single isomer, unassigned) [Example 117]
4. CC1(CNC(=O)C2CC23CCN(C(=O)OC(C(F)(F)F)C(F)(F)F)CC3)CCOCC1 (single isomer, unassigned) [Example 168]

A)
40.5 mL/min/kg
1.94 mL/min/kg
20.6 mL/min/kg
61.4 mL/min/kg
